- target_desc: RpfB (catalytic domain, residues 280-362) (Mycobacterium tuberculosis)
- Sequence (P9WG29 280-362): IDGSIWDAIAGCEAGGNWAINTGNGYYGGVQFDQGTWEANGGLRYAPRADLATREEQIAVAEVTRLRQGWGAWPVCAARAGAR
- test_details: release of fluorescent fragments from FITC-labelled peptidoglycan
- Format: biochemical
- experimental_conditions: read-out: IC50 Rpf-hydrolysis of PG, μM / M. tuberculosis
Hi! Could you tag entries with IC50 below 4 µM as T, and those at or above as F? Much appreciated.

[[record]]
compound = "N#CSc1ccc(C(=O)c2ccccc2)cc1 [III, 4-Benzoylphenyl thiocyanate]"
cat = "T"

[[record]]
compound = "N#CSc1ccc(C(=O)c2ccc(SC#N)c([N+](=O)[O-])c2)cc1[N+](=O)[O-]"
cat = "F"

[[record]]
compound = "N#CSc1cccc(C(=O)c2ccccc2)c1 [II, 3-Benzoylphenyl thiocyanate]"
cat = "T"

[[record]]
compound = "N#CSc1cccc(C(=O)c2cccc(SC#N)c2)c1"
cat = "T"

[[record]]
compound = "N#CSc1ccc(C(=O)c2ccc(SC#N)cc2)cc1"
cat = "F"


Where these numbers come from: paper PMC5667462
